- MEASURED ON: BRM (Homo sapiens, UniProt P51531)
- Construct: Western Blot Screen of BRM Degradation in SW1573 Cells; endogenous in cells; host or cells: SW1573 cells
- Sequence (P51531 whole entry): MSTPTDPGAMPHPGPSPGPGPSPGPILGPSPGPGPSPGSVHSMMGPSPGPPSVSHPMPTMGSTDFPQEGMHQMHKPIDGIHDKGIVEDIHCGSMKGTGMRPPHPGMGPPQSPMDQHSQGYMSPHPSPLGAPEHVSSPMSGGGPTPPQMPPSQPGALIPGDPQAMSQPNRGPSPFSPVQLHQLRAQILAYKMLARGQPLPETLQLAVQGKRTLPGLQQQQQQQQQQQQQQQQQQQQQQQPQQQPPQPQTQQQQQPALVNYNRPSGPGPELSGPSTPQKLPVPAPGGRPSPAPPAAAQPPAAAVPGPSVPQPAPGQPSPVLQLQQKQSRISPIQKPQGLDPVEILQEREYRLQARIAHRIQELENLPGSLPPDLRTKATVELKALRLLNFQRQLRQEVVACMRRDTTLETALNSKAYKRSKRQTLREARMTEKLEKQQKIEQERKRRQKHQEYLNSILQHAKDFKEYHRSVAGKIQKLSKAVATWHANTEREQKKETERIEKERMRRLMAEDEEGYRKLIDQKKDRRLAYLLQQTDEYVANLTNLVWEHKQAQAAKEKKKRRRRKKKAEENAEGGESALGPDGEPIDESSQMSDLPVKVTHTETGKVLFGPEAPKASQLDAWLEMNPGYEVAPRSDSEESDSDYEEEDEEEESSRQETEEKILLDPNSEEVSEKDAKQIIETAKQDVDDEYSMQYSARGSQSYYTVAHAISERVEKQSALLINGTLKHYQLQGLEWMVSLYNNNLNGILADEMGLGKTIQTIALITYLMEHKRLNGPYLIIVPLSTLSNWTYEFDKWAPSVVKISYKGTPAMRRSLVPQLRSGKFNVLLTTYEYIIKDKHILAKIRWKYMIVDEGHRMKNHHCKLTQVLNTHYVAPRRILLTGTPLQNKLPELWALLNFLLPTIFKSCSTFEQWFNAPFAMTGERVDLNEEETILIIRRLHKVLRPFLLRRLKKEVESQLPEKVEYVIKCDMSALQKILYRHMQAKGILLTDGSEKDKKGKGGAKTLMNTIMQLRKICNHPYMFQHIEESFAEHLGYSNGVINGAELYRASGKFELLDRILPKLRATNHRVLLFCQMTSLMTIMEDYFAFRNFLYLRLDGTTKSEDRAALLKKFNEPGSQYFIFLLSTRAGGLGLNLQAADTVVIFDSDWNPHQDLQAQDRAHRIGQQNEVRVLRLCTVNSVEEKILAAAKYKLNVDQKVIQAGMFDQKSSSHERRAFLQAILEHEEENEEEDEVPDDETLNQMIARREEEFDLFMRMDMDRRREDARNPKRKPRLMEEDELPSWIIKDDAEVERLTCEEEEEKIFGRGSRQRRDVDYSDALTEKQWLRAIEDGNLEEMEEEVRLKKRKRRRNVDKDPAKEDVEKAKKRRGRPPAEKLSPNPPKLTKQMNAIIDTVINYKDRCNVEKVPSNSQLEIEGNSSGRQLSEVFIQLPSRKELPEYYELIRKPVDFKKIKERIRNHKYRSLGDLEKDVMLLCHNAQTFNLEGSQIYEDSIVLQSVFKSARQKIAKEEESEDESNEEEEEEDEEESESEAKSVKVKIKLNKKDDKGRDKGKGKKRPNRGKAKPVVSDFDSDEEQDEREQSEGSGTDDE
- PROCEDURE TEXT: BRM degradation (Dmax and DC50) in SW1573 cells, Western blot screen / In-Cell Western screen
- Type: cell-based
- CONDITION SUMMARY: overnight (18-20 hours) treatment
The reader will find reported DC50 values listed item by item below.

| SMILES NOTATION | DC50 |
| --- | --- |
| Cc1ncsc1-c1ccc([C@H](C)NC(=O)[C@@H]2C[C@@H](O)CN2C(=O)[C@@H](c2cc(N3CCC(CN4CCC5(CC4)CC(N4CCO[C@@H]([C@H](C)n6cc(C#Cc7cc(-c8ccccc8O)nnc7N)cn6)C4)C5)CC3)no2)C(C)C)cc1 | < 2.5 nM |

Req: // returns reported DC50 for input Cc1ncsc1-c1ccc([C@H](C)NC(=O)[C@@H]2C[C@@H](O)CN2C(=O)[C@@H](c2cc(N3CCC(OC4CCN(C[C@H]5C[C@@H](N6CCO[C@@H](CN7C8CCC7CN(c7cc(-c9ccccc9O)nnc7N)C8)C6)C5)CC4)CC3)no2)C(C)C)cc1
Resp: < 2.5 nM

* * *

- MEASURED ON: BRM (Homo sapiens, UniProt P51531)
- Construct: Western Blot Screen of BRM Degradation in SW1573 Cells; endogenous in cells; host or cells: SW1573 cells
- PROCEDURE TEXT: BRM degradation (Dmax and DC50) in SW1573 cells, Western blot screen / In-Cell Western screen
- Assay type: cell-based
- CONDITION SUMMARY: overnight (18-20 hours) treatment
Each record here notes measured DC50.

| COMPOUND | DC50 |
| --- | --- |
| CC(C)[C@@H](C(=O)N1C[C@H](O)C[C@H]1C(=O)N[C@@H](C)c1ccc(C#N)cc1)c1cc(N2CCC(CN3CCC(O[C@H]4C[C@H](Oc5cc(N6C7CC6CN(c6cc(-c8ccccc8O)nnc6N)C7)ccn5)C4)CC3)CC2)no1 | < 2.5 nM |
| Cc1ncsc1-c1ccc([C@H](C)NC(=O)[C@@H]2C[C@@H](O)CN2C(=O)[C@@H](c2cc(N3CCC(CN4CCC(O[C@H]5C[C@@H](N6CCC([C@@H](C)n7cc(-c8cc(-c9ccccc9O)nnc8N)cn7)CC6)C5)CC4)CC3)no2)C(C)C)cc1 (single isomer, unassigned) | < 2.5 nM |

Req: // lookup DC50 for CC(C)[C@H](C(=O)N1C[C@H](O)C[C@H]1C(=O)N[C@@H](C)c1ccc(C#N)cc1)c1cc(O[C@H]2C[C@H](CN3CCC(O[C@H]4C[C@H](Oc5cc(N6C7CCC6CN(c6cc(-c8ccccc8O)nnc6N)C7)ccn5)C4)CC3)C2)no1
Resp: ≥ 30 nM

Req: Reported DC50 for Cc1ncsc1-c1ccc([C@H](C)NC(=O)[C@@H]2C[C@@H](O)CN2C(=O)[C@@H](c2cc(N3CCC(CN4CCC(O[C@H]5C[C@H](N6CCC(O[C@H]7CCN(c8cc(-c9ccccc9O)nnc8N)C7)CC6)C5)CC4)CC3)no2)C(C)C)cc1 : what is it?
Resp: < 2.5 nM

* * *

- MEASURED ON: BRM (Homo sapiens)
- Construct: Western Blot Screen of BRM Degradation in SW1573 Cells; endogenous in cells; host or cells: SW1573 cells
- PROCEDURE TEXT: BRM degradation (Dmax and DC50) in SW1573 cells, Western blot screen / In-Cell Western screen
- Type: cell-based
- CONDITION SUMMARY: overnight (18-20 hours) treatment
Entries and their DC50

Req: // fetch BRM (Homo sapiens) DC50 for Cc1ncsc1-c1ccc([C@H](C)NC(=O)[C@@H]2C[C@@H](O)CN2C(=O)[C@@H](c2cc(N3CCC(CN4CCC(O)(C#C[C@H]5C[C@H](Oc6cc(N7C8CCC7CN(c7cc(-c9ccccc9O)nnc7N)C8)ccn6)C5)CC4)CC3)no2)C(C)C)cc1 [Compound 19]
Resp: < 2.5 nM
